test system: 997726-040-R-J2-PDC tumor spheroids, viability; experiment: Anticancer human tumor 997726-040-R-J2-PDC patient-derived squamous cell lung carcinoma cell line growth inhibition [PI3K]; settings: second compound 0.01 µM; first compound 1 µM; stronger effect = lower value; spheroids with HUVEC and MSC
Listing: viability, T/C of selected molecules

Consider the following illustrative entries.
// viability, T/C lookup, molecule = CC(Cn1ccc(-c2ccc(C#N)c(Cl)c2)n1)NC(=O)c1cc(C(C)O)[nH]n1 (stereo not given) + CC(Nc1ccc2c(c1)OCCn1cc(N3C(=O)OCC3C(F)F)nc1-2)C(N)=O , result: 84.5%

// viability, T/C lookup, molecule = Cn1ncc(Cl)c1-c1cc(C(=O)NC(CN)Cc2cccc(F)c2)sc1Cl (stereo not given) + COc1c(OCCCN2CCOCC2)ccc2c3n(c(=NC(=O)c4cnc(N)nc4)nc12)CCN3 , result: 12.4%

// viability, T/C lookup, molecule = CC(C)NCC(C(=O)N1CCN(c2ncnc3c2C(C)CC3O)CC1)c1ccc(Cl)cc1 (stereo not given) + COc1c(OCCCN2CCOCC2)ccc2c3n(c(=NC(=O)c4cnc(N)nc4)nc12)CCN3 , result: 27%

Others:
// viability, T/C lookup, molecule = C=CC(=O)N1CCN(c2nc(=O)n(-c3c(C)ccnc3C(C)C)c3nc(-c4c(O)cccc4F)c(F)cc23)C(C)C1 (stereo not given) + COc1c(OCCCN2CCOCC2)ccc2c3n(c(=NC(=O)c4cnc(N)nc4)nc12)CCN3 , result: 62.9%

// viability, T/C lookup, molecule = C=CC(=O)N1CCN(c2nc(=O)n(-c3c(C)ccnc3C(C)C)c3nc(-c4c(O)cccc4F)c(F)cc23)C(C)C1 (stereo not given) + CC(Nc1ccc2c(c1)OCCn1cc(N3C(=O)OCC3C(F)F)nc1-2)C(N)=O , result: 81.7%

* * *

test system: 997726-040-R-J2-PDC tumor spheroids, viability; experiment: Anticancer human tumor 997726-040-R-J2-PDC cell line growth inhibition [PI3K]; conditions: second compound 3.16 µM; first compound 1 µM; stronger effect = lower value; spheroids with HUVEC and MSC;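 also: spheroids exposed to compounds for seven days before readout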
readoutType: viability, T/C (%)
Please respond with the number in % and leave the unit unwritten.

Consider the following illustrative entries.
// viability, T/C lookup, compound = CC1(C)CCC(Nc2ncc(C(F)(F)F)c(-c3c[nH]c4c(P(C)(C)=O)c(C#N)ccc34)n2)CN1 (stereo not given) + Cc1nc(NC(=O)N2CCCC2C(N)=O)sc1-c1ccnc(C(C)(C)C(F)(F)F)c1 , result: 12.9

// viability, T/C lookup, compound = C[C@@H](NC(=O)c1ncnc(N)c1Cl)c1ncc(C(=O)Nc2cc(C(F)(F)F)c(Cl)cn2)s1 + Cc1nc(NC(=O)N2CCCC2C(N)=O)sc1-c1ccnc(C(C)(C)C(F)(F)F)c1 , result: 33

// viability, T/C lookup, compound = CC(C)NCC(C(=O)N1CCN(c2ncnc3c2C(C)CC3O)CC1)c1ccc(Cl)cc1 (stereo not given) + CC(Nc1ncnc2nc[nH]c12)c1cc2cccc(Cl)c2c(=O)n1-c1ccccc1 , result: 28.3

// viability, T/C lookup, compound = CNC(=O)c1ccc(N2C(=S)N(c3ccc(C#N)c(C(F)(F)F)c3)C(=O)C2(C)C)cc1F + Cc1nc(NC(=O)N2CCCC2C(N)=O)sc1-c1ccnc(C(C)(C)C(F)(F)F)c1 , result: 29.5

Next compound, viability, T/C to be filled in.
// viability, T/C lookup, compound = CCN1CCN(Cc2ccc(Nc3ncc(F)c(-c4cc(F)c5nc(C)n(C(C)C)c5c4)n3)nc2)CC1 + Cc1nc(NC(=O)N2CCCC2C(N)=O)sc1-c1ccnc(C(C)(C)C(F)(F)F)c1 , result: 19.5

* * *

test system: 997726-040-R-J2-PDC tumor spheroids, viability; assay: Anticancer human tumor 997726-040-R-J2-PDC cell line growth inhibition [PI3K]; settings: second compound 0.0316 µM; first compound 3 µM; stronger effect = lower value; spheroids with HUVEC and MSC;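 also: spheroids exposed to compounds for seven days before readout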
readoutType: viability, T/C (%)
Please respond with the number in % and leave the unit unwritten.

Consider the following illustrative entries.
// viability, T/C lookup, compound = Cn1cnc2c(F)c(Nc3ccc(Br)cc3Cl)c(C(=O)NOCCO)cc21 + COc1c(OCCCN2CCOCC2)ccc2c3n(c(=NC(=O)c4cnc(N)nc4)nc12)CCN3 , result: 16.7

// viability, T/C lookup, compound = Cn1cnc2c(F)c(Nc3ccc(Br)cc3Cl)c(C(=O)NOCCO)cc21 + Cc1nc(NC(=O)N2CCCC2C(N)=O)sc1-c1ccnc(C(C)(C)C(F)(F)F)c1 , result: 34.1

// viability, T/C lookup, compound = Cn1cnc2c(F)c(Nc3ccc(Br)cc3Cl)c(C(=O)NOCCO)cc21 + CC(Nc1ncnc2nc[nH]c12)c1cc2cccc(Cl)c2c(=O)n1-c1ccccc1 , result: 44.4

Next compound, viability, T/C to be filled in.
// viability, T/C lookup, compound = Cn1cnc2c(F)c(Nc3ccc(Br)cc3Cl)c(C(=O)NOCCO)cc21 + CC(Nc1ccc2c(c1)OCCn1cc(N3C(=O)OCC3C(F)F)nc1-2)C(N)=O , result: 21.1

* * *

system: 997726-040-R-J2-PDC tumor spheroids, viability; experiment: Anticancer human tumor 997726-040-R-J2-PDC cell line growth inhibition [PI3K]; conditions: curve of first compound; second compound 0.1 µM; spheroids with HUVEC and MSC;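 also: spheroids exposed to compounds for seven days before readout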
readoutType: IC50

Consider the following illustrative entries.
// IC50 lookup, compound = Cn1nccc1Nc1nccc(-c2ccn(C(CO)c3ccc(Cl)c(F)c3)c(=O)c2)n1 (stereo not given) + CC(Nc1ccc2c(c1)OCCn1cc(N3C(=O)OCC3C(F)F)nc1-2)C(N)=O , result: < 31.6 nM

// IC50 lookup, compound = Cn1ncnc1[C@H]1c2n[nH]c(=O)c3cc(F)cc(c23)N[C@@H]1c1ccc(F)cc1 + COc1c(OCCCN2CCOCC2)ccc2c3n(c(=NC(=O)c4cnc(N)nc4)nc12)CCN3 , result: < 0.316 nM

// IC50 lookup, compound = C[C@@H](NC(=O)c1ncnc(N)c1Cl)c1ncc(C(=O)Nc2cc(C(F)(F)F)c(Cl)cn2)s1 + COc1c(OCCCN2CCOCC2)ccc2c3n(c(=NC(=O)c4cnc(N)nc4)nc12)CCN3 , result: < 31.6 nM

Others:
// IC50 lookup, compound = Cn1ncnc1[C@H]1c2n[nH]c(=O)c3cc(F)cc(c23)N[C@@H]1c1ccc(F)cc1 + Cc1nc(NC(=O)N2CCCC2C(N)=O)sc1-c1ccnc(C(C)(C)C(F)(F)F)c1 , result: > 100 nM

// IC50 lookup, compound = CC(C)NCC(C(=O)N1CCN(c2ncnc3c2C(C)CC3O)CC1)c1ccc(Cl)cc1 (stereo not given) + CC(Nc1ccc2c(c1)OCCn1cc(N3C(=O)OCC3C(F)F)nc1-2)C(N)=O , result: 35.8 nM

* * *

tested on: 997726-040-R-J2-PDC tumor spheroids, viability; test: Anticancer human tumor 997726-040-R-J2-PDC cell line growth inhibition [PI3K]; conditions: second compound 10 µM; first compound 0.0316 µM; stronger effect = lower value; spheroids with HUVEC and MSC;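 also: spheroids exposed to compounds for seven days before readout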
readoutType: viability, T/C (%)
Please respond with the number in % and leave the unit unwritten.

Consider the following illustrative entries.
// viability, T/C lookup, compound = CNC(=O)c1ccc(N2C(=S)N(c3ccc(C#N)c(C(F)(F)F)c3)C(=O)C2(C)C)cc1F + Cc1nc(NC(=O)N2CCCC2C(N)=O)sc1-c1ccnc(C(C)(C)C(F)(F)F)c1 , result: 16.1

// viability, T/C lookup, compound = CNC(=O)c1ccc(N2C(=S)N(c3ccc(C#N)c(C(F)(F)F)c3)C(=O)C2(C)C)cc1F + CC(Nc1ncnc2nc[nH]c12)c1cc2cccc(Cl)c2c(=O)n1-c1ccccc1 , result: 59.5

Others:
// viability, T/C lookup, compound = CC1(C)CCC(Nc2ncc(C(F)(F)F)c(-c3c[nH]c4c(P(C)(C)=O)c(C#N)ccc34)n2)CN1 (stereo not drawn) + CC(Nc1ncnc2nc[nH]c12)c1cc2cccc(Cl)c2c(=O)n1-c1ccccc1 , result: 32

* * *

test system: 997726-040-R-J2-PDC tumor spheroids, viability; test: Anticancer human tumor 997726-040-R-J2-PDC cell line growth inhibition [PI3K]; details: second compound 1 µM; first compound 10 µM; stronger effect = lower value; spheroids with HUVEC and MSC;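 also: spheroids exposed to compounds for seven days before readout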
Listing: viability, T/C of selected compounds
Please respond with the number in % and leave the unit unwritten.

Tested on 997726-040-R-J2-PDC tumor spheroids, viability: CC1(C)CCC(CN2CCN(c3ccc(C(=O)NS(=O)(=O)c4ccc(NCC5CCOCC5)c([N+](=O)[O-])c4)c(Oc4cnc5[nH]ccc5c4)c3)CC2)=C(c2ccc(Cl)cc2)C1 + COc1c(OCCCN2CCOCC2)ccc2c3n(c(=NC(=O)c4cnc(N)nc4)nc12)CCN3 . Observed viability, T/C: 1.38

Tested on 997726-040-R-J2-PDC tumor spheroids, viability: CC(Cn1ccc(-c2ccc(C#N)c(Cl)c2)n1)NC(=O)c1cc(C(C)O)[nH]n1 (stereo not drawn) + Cc1nc(NC(=O)N2CCCC2C(N)=O)sc1-c1ccnc(C(C)(C)C(F)(F)F)c1 . Observed viability, T/C: 41.8

Others:
Tested on 997726-040-R-J2-PDC tumor spheroids, viability: CCCS(=O)(=O)Nc1ccc(F)c(C(=O)c2c[nH]c3ncc(-c4ccc(Cl)cc4)cc23)c1F + Cc1nc(NC(=O)N2CCCC2C(N)=O)sc1-c1ccnc(C(C)(C)C(F)(F)F)c1 . Observed viability, T/C: 18.1
